- Target Or Test System: Glucocorticoid receptor (Homo sapiens)
- Protocol Summary: qHTS assay to identify small molecule antagonists of the glucocorticoid receptor (GR) signaling pathway (AID 720692)
- Assay Context: GR-bla HeLa, beta-lactamase FRET ratio, dexamethasone-stimulated, 18 h; series mostly up to 58.5 µM
Records with an inconclusive call do not appear. Active and inactive are the calls of the source. Calls follow the shape of the dose curve; as a rule, active = well fitted inhibition curve with a large enough effect in the signal ratio in the repeat runs (not every such curve was filed as active); inconclusive = weak or mixed curves, or effect the other way; inactive = no such curve, though single readings can be large or run the other way; the % refers to the signal ratio.
Outcomes: active, inactive

Compound	Assigned Class
Oc1cccc2ccccc12	inactive
C/C=C1/CC2C=CC1C2 (centres undefined)	inactive
c1ccc2c(c1)ccc1ccccc12	inactive
CC1=CC(=O)NS(=O)(=O)O1	inactive
COc1ccc(NC(C)=O)cc1N	inactive
NNc1nncc2ccccc12	inactive
CCCCCCCCC/C=C/CC1CC(=O)OC1=O (centres undefined)	active
CCCCCC1=CCCC1=O	inactive
CC[C@H](C)C(=O)O[C@H]1C[C@@H](C)C=C2C=C[C@H](C)[C@H](CC[C@@H]3C[C@@H](O)CC(=O)O3)[C@H]21	active
COc1cc(Cc2cnc(N)nc2N)cc(OC)c1OC	inactive
Cc1cnc(C(=O)NCCc2ccc(S(=O)(=O)NC(=O)NC3CCCCC3)cc2)cn1	inactive
CCC(O)OC(O)CC (centres undefined)	inactive
CCCCN(CCCC)CCCC	inactive
CC(=O)CC(=O)Nc1ccccc1	inactive
